assay_procedure: Terminal plasma and brain concentrations in mice
Type: in vivo
stated_conditions: C57BL/6J, mouse, brain, intraperitoneal, 10 mg/kg, 10 mg/kg IP, read-out: Terminal Brain Conc (ng/g) at 15 min, Mean
measured_endpoint: concentration at 15 min (ng/g)
Numbers only, in ng/g.

Exercise: Return concentration at 15 min (reported value) for this molecule: COc1ccc(OC)c(CCNCc2cc(C)cc(F)c2)c1
Solution: 3280

* * *

system_under_test: 5-HT1A (Homo sapiens)
Sequence (P08908 whole entry): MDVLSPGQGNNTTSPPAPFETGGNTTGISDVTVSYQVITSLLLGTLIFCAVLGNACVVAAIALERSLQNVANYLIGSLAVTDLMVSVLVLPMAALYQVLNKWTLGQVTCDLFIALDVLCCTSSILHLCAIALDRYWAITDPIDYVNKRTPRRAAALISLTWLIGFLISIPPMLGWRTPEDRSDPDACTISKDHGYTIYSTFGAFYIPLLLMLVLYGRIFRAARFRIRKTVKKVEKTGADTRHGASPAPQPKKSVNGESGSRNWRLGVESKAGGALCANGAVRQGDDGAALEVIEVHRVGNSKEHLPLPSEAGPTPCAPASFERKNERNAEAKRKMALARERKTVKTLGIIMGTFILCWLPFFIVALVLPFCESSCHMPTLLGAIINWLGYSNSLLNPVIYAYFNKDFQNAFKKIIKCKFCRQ
assay_procedure: cAMP, 5-HT1A
measured_endpoint: EC50

Go through the items and report each one's EC50.
1. COc1ccc(OC)c(CCNCc2cc(C)cc(Cl)c2)c1
2. COc1ccc(OC)c(CCNCc2cc(C)cc(F)c2)c1

Solution:
1. > 20 µM
2. > 1 µM

* * *

Below are compounds with their pIC50 as measured on 5-HT2A receptor (Mus musculus, UniProt P35363).
Sequence (P35363 whole entry): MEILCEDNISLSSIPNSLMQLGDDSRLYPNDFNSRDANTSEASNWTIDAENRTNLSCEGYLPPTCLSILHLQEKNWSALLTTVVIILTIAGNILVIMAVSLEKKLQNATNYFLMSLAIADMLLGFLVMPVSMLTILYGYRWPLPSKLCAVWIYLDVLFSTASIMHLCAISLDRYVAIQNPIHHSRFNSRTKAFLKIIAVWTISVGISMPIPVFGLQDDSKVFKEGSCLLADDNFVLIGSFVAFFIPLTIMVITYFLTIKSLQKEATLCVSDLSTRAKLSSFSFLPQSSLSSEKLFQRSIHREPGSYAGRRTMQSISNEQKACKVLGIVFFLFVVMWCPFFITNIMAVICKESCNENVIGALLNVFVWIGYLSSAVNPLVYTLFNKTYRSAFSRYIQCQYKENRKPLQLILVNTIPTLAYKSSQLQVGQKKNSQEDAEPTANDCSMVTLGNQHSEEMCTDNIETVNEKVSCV
Answers are plain numbers, as −log10 of the molar value.

INSERT INTO results (smiles_string, reported) VALUES
  ('CN(C)CCc1c[nH]c2cccc(O)c12', 7.00);

Shift focus to the following entry.
Exercise: Return pIC50 (reported value) for this compound: COc1ccc(OC)c(CCNCc2cc(C)cc(F)c2)c1
Solution: 7.68

* * *

system_under_test: UniProtKB P35363
assay_procedure: 5-HT2A receptor binding in mouse frontal cortical tissue
stated_conditions: pKi, Mean (Mouse), mouse frontal cortical tissue
measured_endpoint: Ki

Exercise: Provide Ki, system UniProtKB P35363, entry CN(C)CCc1c[nH]c2cccc(O)c12
Solution: 0.0457 µM

* * *

system_under_test: 5-HT2A (Homo sapiens, UniProt P28223)
Sequence (P28223 whole entry): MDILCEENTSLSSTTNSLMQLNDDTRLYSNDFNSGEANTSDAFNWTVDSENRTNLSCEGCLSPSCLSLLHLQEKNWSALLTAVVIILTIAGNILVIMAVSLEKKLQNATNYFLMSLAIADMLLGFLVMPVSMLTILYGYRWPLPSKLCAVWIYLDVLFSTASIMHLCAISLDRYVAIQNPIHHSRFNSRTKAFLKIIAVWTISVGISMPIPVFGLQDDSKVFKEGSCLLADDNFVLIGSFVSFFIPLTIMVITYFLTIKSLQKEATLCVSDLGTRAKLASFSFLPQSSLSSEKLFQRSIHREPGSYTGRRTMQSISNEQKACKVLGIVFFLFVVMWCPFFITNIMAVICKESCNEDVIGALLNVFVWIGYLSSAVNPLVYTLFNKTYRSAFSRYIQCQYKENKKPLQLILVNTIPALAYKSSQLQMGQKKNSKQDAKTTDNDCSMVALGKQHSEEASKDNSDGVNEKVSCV
assay_procedure: Radioligand binding, 5-HT2A
Parameters: expressed in transfected cells
So I've got a bunch of compounds here, and I need their pIC50 values.
Give bare numbers, as −log10 of the molar value.

INSERT INTO measurements (smiles_string, system_under_test, reported) VALUES
  ('COc1ccc(OC)c(CCNCc2cc(C)cc(Cl)c2)c1', '5-HT2A (Homo sapiens, UniProt P28223)', 7.37);

Shift focus to the following entry.
Exercise: Return pIC50 (reported value) for this compound: COc1ccc(OC)c(CCNCc2cc(C)cc(F)c2)c1
Solution: 6.98

* * *

system_under_test: 5-HT5A (Homo sapiens, UniProt P47898)
Sequence (P47898 whole entry): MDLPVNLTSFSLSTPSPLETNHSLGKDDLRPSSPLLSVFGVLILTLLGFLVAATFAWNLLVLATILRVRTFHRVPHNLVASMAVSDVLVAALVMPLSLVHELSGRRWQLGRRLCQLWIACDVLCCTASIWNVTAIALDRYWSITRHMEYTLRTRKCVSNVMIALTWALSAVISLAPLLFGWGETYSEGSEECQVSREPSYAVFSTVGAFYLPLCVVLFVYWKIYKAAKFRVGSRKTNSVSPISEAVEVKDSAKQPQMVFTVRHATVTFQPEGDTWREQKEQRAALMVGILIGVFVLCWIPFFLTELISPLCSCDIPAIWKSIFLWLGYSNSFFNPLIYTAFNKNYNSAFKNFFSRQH
assay_procedure: cAMP, 5-HT5A
measured_endpoint: EC50 (nM)
One number for each entry, in nM.

Exercise: Return EC50 (reported value) for this compound: COc1ccc(OC)c(CCNCc2cc(C)cc(Cl)c2)c1
Solution: 25.2

* * *

system_under_test: 5-HT2A (Homo sapiens)
measured_endpoint: Ki

Exercise: Return Ki (reported value) for this compound: COc1ccc(OC)c(CCNCc2cc(C)cc(F)c2)c1
Solution: 30.8 nM

* * *

So I've got a bunch of compounds here, and I need their pEC50 values.
system_under_test: UniProt:P28223
assay_procedure: β-Arrestin, 5-HT2A
Format: cell-based
Design: expressed in transfected cells
Numbers only, as −log10 of the molar value.

INSERT INTO assay_data (smiles_string, reported) VALUES
  ('COc1ccc(OC)c(CCNCc2cc(C)cc(Cl)c2)c1', 7.76);

Shift focus to the following entry.
Exercise: Provide pEC50, system UniProt:P28223, entry COc1ccc(OC)c(CCNCc2cc(C)cc(F)c2)c1
Solution: 7.59

Data origin, for the record: patent US12343319B2
